Assay: Displacement of Cy5-labelled (position-4) ATP from Mycobacterium tuberculosis HSP70 expressed in Escherichia coli BL21(DE3) after 16 hrs by microarray assay
Experimental readout: EC50 (nM)
Give bare numbers, in nM.

Return EC50 (reported value) for this compound: Nc1ncnc2c1ncn2[C@@H]1O[C@H](COP(=O)(O)OP(=O)(O)OP(=O)(O)O)[C@@H](O)[C@H]1O [ADENOSINE TRIPHOSPHATE]
1
